Documented pIC50 across a set of compounds
study system: N-type calcium channel (Homo sapiens, UniProt Q00975)
Sequence (Q00975 whole entry): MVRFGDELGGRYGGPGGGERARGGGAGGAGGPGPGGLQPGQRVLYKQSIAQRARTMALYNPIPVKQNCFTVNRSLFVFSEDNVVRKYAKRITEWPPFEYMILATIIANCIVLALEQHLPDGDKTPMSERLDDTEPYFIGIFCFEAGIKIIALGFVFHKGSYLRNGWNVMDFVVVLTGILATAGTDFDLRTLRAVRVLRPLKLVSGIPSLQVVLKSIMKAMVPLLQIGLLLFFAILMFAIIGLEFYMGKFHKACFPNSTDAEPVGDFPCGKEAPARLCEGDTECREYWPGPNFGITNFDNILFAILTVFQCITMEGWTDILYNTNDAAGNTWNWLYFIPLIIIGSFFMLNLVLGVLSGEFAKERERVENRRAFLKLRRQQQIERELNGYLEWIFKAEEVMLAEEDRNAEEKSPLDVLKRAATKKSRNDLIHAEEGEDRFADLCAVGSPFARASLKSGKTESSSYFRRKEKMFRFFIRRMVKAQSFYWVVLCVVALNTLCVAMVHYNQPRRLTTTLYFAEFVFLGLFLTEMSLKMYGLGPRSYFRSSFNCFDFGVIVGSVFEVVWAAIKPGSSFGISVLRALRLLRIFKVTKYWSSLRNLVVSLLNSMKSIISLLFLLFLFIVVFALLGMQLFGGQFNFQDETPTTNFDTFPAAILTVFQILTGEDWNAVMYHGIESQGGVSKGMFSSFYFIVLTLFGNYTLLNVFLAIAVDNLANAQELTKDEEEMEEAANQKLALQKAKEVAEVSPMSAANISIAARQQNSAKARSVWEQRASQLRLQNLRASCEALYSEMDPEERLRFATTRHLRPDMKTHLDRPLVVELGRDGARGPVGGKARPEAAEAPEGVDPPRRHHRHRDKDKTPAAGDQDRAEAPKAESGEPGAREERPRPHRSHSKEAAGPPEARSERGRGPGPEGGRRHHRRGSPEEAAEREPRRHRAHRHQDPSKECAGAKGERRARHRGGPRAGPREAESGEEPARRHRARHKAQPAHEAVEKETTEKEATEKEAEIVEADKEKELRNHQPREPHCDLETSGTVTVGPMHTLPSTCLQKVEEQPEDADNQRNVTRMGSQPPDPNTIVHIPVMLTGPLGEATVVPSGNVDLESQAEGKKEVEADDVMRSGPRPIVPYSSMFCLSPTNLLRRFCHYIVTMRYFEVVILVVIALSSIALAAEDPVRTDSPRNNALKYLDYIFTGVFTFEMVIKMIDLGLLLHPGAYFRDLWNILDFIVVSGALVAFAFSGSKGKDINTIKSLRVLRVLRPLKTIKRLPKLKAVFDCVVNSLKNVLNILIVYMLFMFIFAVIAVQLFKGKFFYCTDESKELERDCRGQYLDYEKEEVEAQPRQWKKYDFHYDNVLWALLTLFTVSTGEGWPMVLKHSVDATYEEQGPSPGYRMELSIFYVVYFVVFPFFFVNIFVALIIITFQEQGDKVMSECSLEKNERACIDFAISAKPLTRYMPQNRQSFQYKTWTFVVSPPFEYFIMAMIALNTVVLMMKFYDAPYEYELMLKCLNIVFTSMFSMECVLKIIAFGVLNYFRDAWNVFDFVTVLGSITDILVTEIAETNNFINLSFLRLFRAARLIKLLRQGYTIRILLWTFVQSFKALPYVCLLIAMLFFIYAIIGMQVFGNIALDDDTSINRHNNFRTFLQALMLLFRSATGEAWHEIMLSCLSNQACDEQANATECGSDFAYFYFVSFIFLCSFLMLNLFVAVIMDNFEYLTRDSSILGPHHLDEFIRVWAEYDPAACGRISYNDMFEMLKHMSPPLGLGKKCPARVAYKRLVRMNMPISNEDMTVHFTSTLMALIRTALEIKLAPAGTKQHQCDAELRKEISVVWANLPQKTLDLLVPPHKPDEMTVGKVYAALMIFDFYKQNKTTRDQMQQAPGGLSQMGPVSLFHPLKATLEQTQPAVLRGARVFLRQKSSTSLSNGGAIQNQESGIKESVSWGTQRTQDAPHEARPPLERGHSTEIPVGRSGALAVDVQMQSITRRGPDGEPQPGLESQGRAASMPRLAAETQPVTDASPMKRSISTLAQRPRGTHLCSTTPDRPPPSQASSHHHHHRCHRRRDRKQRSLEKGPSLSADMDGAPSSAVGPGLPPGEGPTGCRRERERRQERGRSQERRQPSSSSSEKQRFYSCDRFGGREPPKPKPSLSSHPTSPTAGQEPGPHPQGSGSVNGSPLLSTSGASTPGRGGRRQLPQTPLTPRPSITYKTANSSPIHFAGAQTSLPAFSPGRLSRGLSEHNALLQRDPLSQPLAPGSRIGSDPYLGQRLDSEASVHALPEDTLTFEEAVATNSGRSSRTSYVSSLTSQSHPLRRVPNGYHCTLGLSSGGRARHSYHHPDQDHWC
Sequence (P54289 25-956 partner limits assumed): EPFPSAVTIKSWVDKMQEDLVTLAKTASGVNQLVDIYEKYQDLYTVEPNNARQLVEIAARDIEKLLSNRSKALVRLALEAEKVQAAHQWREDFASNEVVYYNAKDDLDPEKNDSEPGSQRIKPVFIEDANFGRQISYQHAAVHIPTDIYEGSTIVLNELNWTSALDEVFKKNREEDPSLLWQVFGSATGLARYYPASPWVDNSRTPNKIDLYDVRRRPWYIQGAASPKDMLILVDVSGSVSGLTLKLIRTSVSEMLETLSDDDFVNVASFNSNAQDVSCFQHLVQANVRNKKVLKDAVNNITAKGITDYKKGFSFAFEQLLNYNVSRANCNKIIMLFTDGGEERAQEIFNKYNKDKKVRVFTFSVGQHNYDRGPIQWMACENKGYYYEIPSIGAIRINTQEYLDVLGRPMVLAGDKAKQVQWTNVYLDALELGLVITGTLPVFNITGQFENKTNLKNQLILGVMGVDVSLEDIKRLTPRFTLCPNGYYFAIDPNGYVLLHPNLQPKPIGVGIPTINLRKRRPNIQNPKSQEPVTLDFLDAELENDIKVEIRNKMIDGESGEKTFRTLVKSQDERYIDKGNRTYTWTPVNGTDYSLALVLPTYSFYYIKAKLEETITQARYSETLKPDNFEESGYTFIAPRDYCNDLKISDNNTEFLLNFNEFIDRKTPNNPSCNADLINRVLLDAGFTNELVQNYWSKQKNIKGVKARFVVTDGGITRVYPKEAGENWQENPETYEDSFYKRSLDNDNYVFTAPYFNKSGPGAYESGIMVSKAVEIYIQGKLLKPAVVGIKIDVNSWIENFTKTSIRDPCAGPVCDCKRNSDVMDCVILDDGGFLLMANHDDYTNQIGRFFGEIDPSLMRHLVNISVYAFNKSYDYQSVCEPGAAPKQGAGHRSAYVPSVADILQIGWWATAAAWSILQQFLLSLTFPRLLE
Sequence (P54289 957-1103 partner limits assumed): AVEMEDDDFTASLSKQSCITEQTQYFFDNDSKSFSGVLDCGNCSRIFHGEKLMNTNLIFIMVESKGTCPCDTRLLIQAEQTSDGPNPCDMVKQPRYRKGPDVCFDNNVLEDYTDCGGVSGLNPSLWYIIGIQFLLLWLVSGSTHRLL
Sequence (Q02641 whole entry partner): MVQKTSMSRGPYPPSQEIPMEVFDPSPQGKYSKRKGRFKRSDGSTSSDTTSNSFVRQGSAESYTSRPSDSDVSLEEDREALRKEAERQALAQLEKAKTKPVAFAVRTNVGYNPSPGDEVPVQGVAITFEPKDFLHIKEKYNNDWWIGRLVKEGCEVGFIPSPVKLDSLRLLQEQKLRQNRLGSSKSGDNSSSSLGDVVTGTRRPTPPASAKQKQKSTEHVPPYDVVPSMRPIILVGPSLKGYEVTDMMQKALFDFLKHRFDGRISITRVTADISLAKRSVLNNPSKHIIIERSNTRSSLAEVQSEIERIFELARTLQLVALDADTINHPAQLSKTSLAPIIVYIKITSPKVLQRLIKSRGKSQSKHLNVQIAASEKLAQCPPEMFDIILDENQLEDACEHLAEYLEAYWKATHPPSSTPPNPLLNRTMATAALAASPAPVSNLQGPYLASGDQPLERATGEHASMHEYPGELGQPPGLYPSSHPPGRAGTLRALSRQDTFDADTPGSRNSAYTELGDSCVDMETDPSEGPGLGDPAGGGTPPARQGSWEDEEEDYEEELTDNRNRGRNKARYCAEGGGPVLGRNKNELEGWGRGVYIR
method summary: N-channel FLIPR assay
pIC50: −log10 of the molar value.
readout label: pIC50

| compound | study system | comparison symbol | value observed |
| --- | --- | --- | --- |
| Cc1ccc(-c2cc(C(=O)O)c3ccccc3n2)cc1 | N-type calcium channel (Homo sapiens, UniProt Q00975) | < | 5.00 |
| CC(=O)Nc1cc(/C=C/c2cccc(F)c2)nc2ccccc12 | N-type calcium channel (Homo sapiens, UniProt Q00975) | = | 5.19 |
| Nc1c2c(nc3ccccc13)-c1ccccc1CCC2 | N-type calcium channel (Homo sapiens, UniProt Q00975) | = | 6.05 |
| Cc1c(-c2ccccc2)nc2ccccc2c1N | N-type calcium channel (Homo sapiens, UniProt Q00975) | = | 5.44 |
| COc1ccc2nc(-c3ccccc3)cc(C(=O)O)c2c1 | N-type calcium channel (Homo sapiens, UniProt Q00975) | < | 5.00 |
| CNc1cc(-c2cccc(F)c2)nc2ccccc12 | N-type calcium channel (Homo sapiens, UniProt Q00975) | = | 5.80 |
| CC(C)(C)c1cc(N)c2ccccc2n1 | N-type calcium channel (Homo sapiens, UniProt Q00975) | < | 5.00 |
| Nc1cc(/C=C/c2ccccc2)nc2ccccc12 [Example 13, 2-[(E)-2-phenylethenyl]-4-quinolinamine] | N-type calcium channel (Homo sapiens, UniProt Q00975) | = | 5.85 |
| Nc1cc(-c2ccccc2)nc2ccccc12 | N-type calcium channel (Homo sapiens, UniProt Q00975) | = | 5.36 |
| Cc1ccc(-c2cc(N)c3ccccc3n2)cc1 | N-type calcium channel (Homo sapiens, UniProt Q00975) | = | 5.51 |
| CC(=O)Nc1cc(/C=C/c2ccccc2)nc2ccccc12 | N-type calcium channel (Homo sapiens, UniProt Q00975) | = | 5.30 |
| CN(C)c1cc(-c2cccc(F)c2)nc2ccccc12 | N-type calcium channel (Homo sapiens, UniProt Q00975) | = | 5.52 |
| Cc1cccc2c(N)cc(-c3ccccc3)nc12 | N-type calcium channel (Homo sapiens, UniProt Q00975) | = | 5.51 |
| COc1ccc(-c2cc(N)c3ccccc3n2)cc1 | N-type calcium channel (Homo sapiens, UniProt Q00975) | = | 5.32 |
| Nc1cc(-c2cccs2)nc2ccccc12 | N-type calcium channel (Homo sapiens, UniProt Q00975) | = | 5.27 |
| Nc1cc(/C=C/c2cccc(F)c2)nc2ccccc12 | N-type calcium channel (Homo sapiens, UniProt Q00975) | = | 5.37 |
| Nc1ccc2nc(/C=C/c3cccc(F)c3)cc(N)c2c1 | N-type calcium channel (Homo sapiens, UniProt Q00975) | = | 5.42 |
